Every entry's value here was drawn from PubChem BioAssay (NCATS).

assay: Quantitative High-Throughput drug screen in 47 multiple myeloma cell lines against the NCATS MIPE library collection: XG1_PLB cell viability assay (AID 1919866); conditions: CellTiter-Glo ATP, 48 h; series mostly up to 45.8 µM; also: nearly all actives have a fitted effect of over 35% in size
Inconclusive results are not listed. The source made the active and inactive calls. Calls follow the shape of the dose curve; as a rule, active = well fitted cell-killing curve with a large enough effect; inconclusive = small, poorly fitted or top-dose-only effect, or effect the other way; inactive = no such curve, though single readings can be large or run the other way.
Respond with a class label; see active, inactive

The following molecules have reported results that may help.
CC1(C)SCCN(S(=O)(=O)c2ccc(OCC#CCO)cc2)[C@@H]1C(=O)NO; inactive
O=C(C1CC1)N1CC[C@@H](Cn2c(-c3ccc(-c4ccc5occc5c4)cc3)nc3cnccc32)C1; active
CO[C@@H]1[C@H](N(C)C(=O)c2ccccc2)C[C@H]2O[C@]1(C)n1c3ccccc3c3c4c(c5c6ccccc6n2c5c31)C(=O)NC4; active
CS(=O)(=O)c1cccc(CNc2nc(Nc3ccc4c(c3)CCC(=O)N4)ncc2C(F)(F)F)c1; active
NC(=O)c1ccc(I)c([N+](=O)[O-])c1; active
C[C@@H]1CN(Cc2ccc(F)cc2)[C@@H](C)CN1C(=O)c1cc2c(C(=O)C(=O)N(C)C)cn(C)c2cc1Cl; active
Cc1cc([C@@H](C)Nc2ccccc2C(=O)O)c2nc(N3CCOCC3)cc(=O)n2c1; active
Cc1cc(-c2ccc(CC(=O)Nc3ccc(-c4cccnc4)cc3)cc2)ccn1; active

Request: GET /call?item= O=C(C=Cc1ccc(/C=C/C(=O)Nc2ccc(C3=NCCN3)cc2)cc1)Nc1ccc(C2=NCCN2)cc1 returns the recorded outcome of this test.
Result: inactive

Request: GET /call?item= COc1ccc2c3n(c(=NC(=O)c4cccnc4)nc2c1OC)CCN3 returns the recorded outcome of this test.
Result: active

Request: GET /call?item= CN[C@@H](C)C(=O)N[C@H]1CCCC[C@H]2CC[C@@H](C(=O)N[C@@H](c3ccccc3)c3cn(CCCCc4ccc(CCCCn5cc([C@@H](NC(=O)[C@@H]6CC[C@@H]7CCCC[C@H](NC(=O)[C@H](C)NC)C(=O)N76)c6ccccc6)nn5)cc4)nn3)N2C1=O returns the recorded outcome of this test.
Result: active

Request: GET /call?item= Nc1ncnc2nc(-c3ccc(N4CCOCC4)nc3)cc(-c3cccc(Br)c3)c12 returns the recorded outcome of this test.
Result: active

Request: GET /call?item= Cn1c(=O)c(F)c(Nc2ccc(I)cc2F)c2c(=O)n(C[C@@H](O)CO)cnc21 returns the recorded outcome of this test.
Result: inactive

Request: GET /call?item= O=c1[nH]cnc2[nH]ncc12 returns the recorded outcome of this test.
Result: inactive

====

experiment: Quantitative High-Throughput drug screen in 47 multiple myeloma cell lines against the NCATS MIPE library collection: JJN3_DSMZ cell viability assay (AID 1918966; also: nearly all actives have a fitted effect of over 50% in size); settings: JJN3 myeloma cells viability, CellTiter-Glo ATP, 48 h; series mostly up to 45.8 µM
Inconclusive results are not listed. Activity calls are given as the source filed them. The call rests on the fitted dose curve; in most records, active means well fitted cell-killing curve with a large enough effect; inconclusive means small, poorly fitted or top-dose-only effect, or effect the other way; inactive means no such curve, though single readings can be large or run the other way.
Respond with a class label; see active, inactive

COc1ccc(-c2ccc3c(N4CCOCC4)nc(N4C[C@@H](C)O[C@@H](C)C4)nc3n2)cc1CO; active
Cc1cc(Nc2nc(N[C@@H](C)c3ncc(F)cn3)ncc2Cl)n[nH]1; active
CC1(C)SCCN(S(=O)(=O)c2ccc(OCC#CCO)cc2)[C@@H]1C(=O)NO; inactive
Cc1c(CN2CCN(C(=O)C(C)C)CC2)sc2c(N3CCOCC3)nc(-c3cnc(N)nc3)nc12; active
NC(=O)c1cnccn1; inactive
CC(=O)NC(C)c1ccc(Oc2ccc(OC(C)C)cc2)cc1 (stereo not given); active
NC[C@H](O)c1ccc(O)c(O)c1; active
COc1ccc(CC2=NN3C([C@@H](CCc4ccccc4)[C@@H](C)O)=NC(C)C3C(=O)N2)cc1OC (stereo not given in full); inactive
Cc1cn[nH]c1; active
CC1(C)Cc2c(-c3ccccc3)c(-c3ccc(Cl)cc3)c(CC(=O)O)n2C1; active

Request: GET /call?item= COc1ccc(-c2ccc3c(N4CCOC[C@H]4C)nc(N4CCOC[C@H]4C)nc3n2)cc1CO returns the recorded outcome of this test.
Result: active

Request: GET /call?item= CN(C)c1ccc(Nc2nc(N)n(C(=O)c3c(F)cccc3F)n2)cc1 returns the recorded outcome of this test.
Result: active

Request: GET /call?item= CS(=O)(=O)c1cccc(CNc2nc(Nc3ccc4c(c3)CCC(=O)N4)ncc2C(F)(F)F)c1 returns the recorded outcome of this test.
Result: active

Request: GET /call?item= Cc1c(C)c2c(c(C)c1O)CCC(C)(COc1ccc(CC3SC(=O)NC3=O)cc1)O2 (stereo not given) returns the recorded outcome of this test.
Result: inactive

Request: GET /call?item= Cc1ccc(NC(=O)c2cccc(C(C)(C)C#N)c2)cc1Nc1ccc2ncn(C)c(=O)c2c1 returns the recorded outcome of this test.
Result: active

Request: GET /call?item= Cc1oncc1C(=O)Nc1ccc(C(F)(F)F)cc1 returns the recorded outcome of this test.
Result: inactive
